protocol_description: NCI Yeast Anticancer Drug Screen. Data for the bub3 strain (AID 167)
study_conditions: S. cerevisiae bub3 mutant strain, at 5.0 µM (retest, dose inferred, filed as 0.5), stronger effect = higher value
This is part of a sample that, as a whole, favours compounds with a hit. Of some 79,000 tested, about 15% had one in any assay. Activity calls are given as the source filed them. Rule as the data show it: active = growth inhibition above about 70%; inactive = the rest.
// values below are reported growth inhibition

{"compound": "C/C(=N\\NC(=S)Nc1ccc(C(=O)O)cc1C)c1ccc2ccccc2n1", "growth inhibition": "0% (inactive)"}
{"compound": "CN(C)Cc1ccc2[nH]c3c(c2c1)CCCC3", "growth inhibition": "1% (inactive)"}
{"compound": "Nc1nc(-c2ccccc2)nc(Cl)c1I", "growth inhibition": "-10% (inactive)"}
{"compound": "Cc1nc2c(cnn2-c2ccccc2)c(=O)o1", "growth inhibition": "-65% (inactive)"}
{"compound": "O=C1/C(=C\\c2ccccc2)CCC/C1=C\\O", "growth inhibition": "-64% (inactive)"}
{"compound": "CC(C)CCCC(C)C1CCC2C3C=CC4=CCCCC4(C)C3CCC12C (configuration not stated)", "growth inhibition": "-4% (inactive)"}
{"compound": "O=C(Nc1ccc(C(F)(F)F)cc1[N+](=O)[O-])C(=O)C(C(=O)c1ccc2ccccc2c1)C1OC(=O)c2ccccc21 (configuration not stated)", "growth inhibition": "9% (inactive)"}
{"compound": "CC1C[C@]2(C)C(=S)Nc3ccccc3[C@@H]2Nc2ccccc21 (some centres not stated)", "growth inhibition": "24% (inactive)"}
{"compound": "CC(C)(C)c1cc(C(=O)[O-])c([OH2+])c(C(C)(C)C)c1.CC(C)(C)c1cc(C(=O)[O-])c([OH2+])c(C(C)(C)C)c1.[Mn+2]", "growth inhibition": "21% (inactive)"}
{"compound": "Clc1cccc(Cl)c1C(Nc1nncs1)Nc1nncs1", "growth inhibition": "-11% (inactive)"}
{"compound": "COc1cccc(C2c3cc4c(cc3OC(N3CCCC3)C2C)OCO4)c1 (configuration not stated)", "growth inhibition": "-30% (inactive)"}
{"compound": "O=Cc1ccc2ccc3ccccc3c2c1", "growth inhibition": "-27% (inactive)"}
{"compound": "Cc1ccc(C)c2c3c([nH]c12)-c1ccccc1CC3", "growth inhibition": "0% (inactive)"}
{"compound": "O=C1/C(=C/c2ccc(Cl)cc2)CSC/C1=C\\c1ccc(Cl)cc1", "growth inhibition": "25% (inactive)"}
{"compound": "CCCCCCCCCCCCCCCCCCNC(=S)/N=C/c1c(O)cc(C)oc1=O", "growth inhibition": "-2% (inactive)"}
{"compound": "Clc1ccc(C2SCc3nc4ccccc4n32)c(Cl)c1 (configuration not stated)", "growth inhibition": "9% (inactive)"}
{"compound": "CCC(c1ccc(OC)cc1)C(O)(CC)c1ccc(OC)cc1 (configuration not stated)", "growth inhibition": "11% (inactive)"}
{"compound": "Nc1ccc(CCCCCc2ccc(N)cc2)cc1", "growth inhibition": "-6% (inactive)"}
{"compound": "CC([C@H]1CCC2C3CCC4CC5(CC[C@]4(C)C3CC[C@@]21C)c1ccccc1C(=O)N5C)N(C)C (some centres not stated)", "growth inhibition": "6% (inactive)"}
{"compound": "Cc1c(Cl)ccc2c1NC(=O)C2(O)CC(=O)c1ccc(Cl)cc1 (configuration not stated)", "growth inhibition": "14% (inactive)"}
{"compound": "COc1ccc(NC(=O)Nc2ccc(Cl)cc2)nn1", "growth inhibition": "-9% (inactive)"}
{"compound": "Cc1c(O)c(Br)c(C)c(O)c1Br (tested in a mixture with another compound)", "growth inhibition": "1% (inactive)"}

----------
// values below are reported growth inhibition
protocol_description: NCI Yeast Anticancer Drug Screen. Data for the cln2 rad14 strain (AID 165);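 also: 0% = growth equal to vehicle treated cultures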
study_conditions: S. cerevisiae cln2 rad14 strain, at 5.0 µM (retest, dose inferred, filed as 0.5), stronger effect = higher value
About 79,000 compounds went through this panel and 15% of them were active in at least one assay; those are over-represented in the sample as a whole. Active and inactive are the calls of the source. Cut-off read from the data, not from the text of the source: active = growth inhibition above about 70%; inactive = the rest.
result_type: growth inhibition

{"compound": "COc1ccc2c(c1)[n+]([O-])c(-c1ccc(Cl)cc1)c(N)[n+]2[O-]", "result": "46% (inactive)"}
{"compound": "COC(=O)c1n[nH]c(C(C)C)c1N=NN(C)C", "result": "-11% (inactive)"}
{"compound": "CCCCc1ccc2nccc(N/N=C/c3ccc(OC)c4ccccc34)c2c1", "result": "-2% (inactive)"}
{"compound": "COc1ccc2c(c1)[n+]([O-])c(C(N)=O)c(N)[n+]2[O-]", "result": "31% (inactive)"}
{"compound": "FC(F)(F)c1nc2cc(SSc3cc4nc(C(F)(F)F)[nH]c4cc3Cl)c(Cl)cc2[nH]1", "result": "-6% (inactive)"}
{"compound": "O=C(Cc1ccccc1)OC(C(=O)c1ccccc1)c1ccccc1 (stereo not given)", "result": "2% (inactive)"}
{"compound": "CCC(CC)(c1ccc(C)cc1)c1ccc(C)cc1", "result": "-80% (inactive)"}
{"compound": "CS(=O)(=O)c1cc(=O)c2ccccc2s1", "result": "10% (inactive)"}
{"compound": "O=C(O)C1(Cc2ccc3c(c2)CCC3)Cc2cc3c(cc2C1)CCC3", "result": "-1% (inactive)"}
{"compound": "O=C(Nc1cccc2ccccc12)OCC1CCc2ccccc2C1 (stereo not given)", "result": "-8% (inactive)"}
{"compound": "O=S1(=O)c2ccccc2C(=NO)c2ccccc21", "result": "3% (inactive)"}
{"compound": "CCCCCCCCCN1CCNC1=S", "result": "-18% (inactive)"}
{"compound": "CN(C)c1ccc(/C=C(/C#N)c2ccc(Cl)cc2)cc1", "result": "27% (inactive)"}
{"compound": "CSC(=S)/C(=C/Nc1ncccn1)c1ccccc1", "result": "1% (inactive)"}
{"compound": "O=C1CSC(=S)N1Cc1ccccc1Cl", "result": "2% (inactive)"}
{"compound": "O=C(COc1ccc2ccccc2c1)NC1c2ccccc2Oc2ccccc21", "result": "98% (active)"}
{"compound": "O=C1OC(c2ccc(O)cc2)=C(c2ccccc2)C1c1ccccc1 (stereo not given)", "result": "4% (inactive)"}
{"compound": "O=C1CCC(Cc2ccc(C(F)(F)F)cc2)C(=O)N1 (stereo not given)", "result": "-3% (inactive)"}
{"compound": "CCN1C2=NCCN2S(=O)(=O)c2ccccc21", "result": "14% (inactive)"}
{"compound": "O=C(CCCN1CCc2[nH]c3cc(F)ccc3c2C1)c1ccc(F)cc1", "result": "-9% (inactive)"}
{"compound": "O=C(CNc1cccc([N+](=O)[O-])c1)Nn1c(-c2ccccc2)nc2ccccc2c1=O", "result": "12% (inactive)"}
{"compound": "N#C/C(=C/c1ccccc1B(O)O)C(=O)O", "result": "-62% (inactive)"}
{"compound": "CC(C)(C)CC(C)(C)c1ccc(O)cc1O", "result": "2% (inactive)"}
{"compound": "CN1C/C(=C\\c2ccccc2)C(=O)/C(=C/c2ccccc2)C1", "result": "14% (inactive)"}
{"compound": "CN1CCCCC1c1cc2c3ccccc3ccn2c1-c1ccccc1 (stereo not given)", "result": "-7% (inactive)"}

----------
protocol_description: NCI Yeast Anticancer Drug Screen. Data for the cln2 rad14 strain (AID 165);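 also: 0% = growth equal to vehicle treated cultures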
study_conditions: S. cerevisiae cln2 rad14 strain, at 50.0 µM
This is part of a sample that, as a whole, favours compounds with a hit. Of some 79,000 tested, about 15% had one in any assay. Activity calls are given as the source filed them. No stated cut-off is given here; in the data, active means growth inhibition above about 70%; inactive means the rest.
Outcome codes: active, inactive

{"molecule": "Clc1ccc2nc3c(c(N4CCCCC4)c2c1)CCCC3", "class": "active"}
{"molecule": "O=C(c1ccccc1)C1C(c2ccccc2)OP(c2ccccc2)(c2ccccc2)(c2ccccc2)C1c1ccccc1 (configuration not stated)", "class": "active"}
{"molecule": "CCCCN1C(=O)C(=O)N(c2ccccc2)C1=O", "class": "active"}
{"molecule": "O=S(=O)(Nc1ccccn1)c1ccc(N=Cc2c3ccccc3nc3cc(Cl)ccc23)cc1", "class": "active"}
{"molecule": "CC(C)(C)C(=O)Nc1ccc2c(c1)C(=O)c1ccccc1C2=O", "class": "active"}
{"molecule": "CN(C)c1nc(-c2ccccc2)cc(-c2ccc(O)cc2)n1", "class": "inactive"}
{"molecule": "CCCCc1ccc2c(c1)Nc1cc3ccccc3cc1N2", "class": "inactive"}
{"molecule": "COc1ccc(/C=N/n2c(C)nc3c(sc(=S)n3-c3ccccc3)c2=O)cc1", "class": "inactive"}
{"molecule": "CN(NC(=O)c1cccs1)C1=NCCCN1", "class": "inactive"}
{"molecule": "CCOC(=O)C1=C(N)OC(c2ccccc2)=C(C#N)C1c1ccc(C)cc1 (configuration not stated)", "class": "active"}
{"molecule": "CCC1(CC)COC(C)(C(=O)O)OC1", "class": "inactive"}
{"molecule": "CCOC(=O)Cc1[nH]c(C(=O)c2ccccc2)cc1C(=O)c1ccccc1", "class": "inactive"}
{"molecule": "Cc1cccc2c1Oc1ccccc1C2N1C(=O)/C(=C/c2cccs2)SC1=S (configuration not stated)", "class": "active"}
{"molecule": "C=C1CC(Cn2cc(C)c(=O)[nH]c2=O)(c2ccc(Cl)cc2)OC1=O (configuration not stated)", "class": "inactive"}
{"molecule": "C=CC[P+](CC[P+](CC=C)(c1ccccc1)c1ccccc1)(c1ccccc1)c1ccccc1", "class": "inactive"}
{"molecule": "O=c1cccc(C2CCc3cc(O)ccc3C2)[nH]1 (configuration not stated)", "class": "inactive"}
{"molecule": "COC(=O)C1=CCC[C@H]2C1(C)CCC(C)C21CC(c2ccoc2)OC1=O (some centres not stated)", "class": "inactive"}
{"molecule": "CCOC(=O)C1=C(c2ccccc2)N(C)c2ccccc2S1", "class": "inactive"}
{"molecule": "CN(C)C(N)=NC#N", "class": "inactive"}
{"molecule": "CCc1[nH]c2ccccc2c1C(c1c(CC)[nH]c2ccccc12)C1CCCCC1=O (configuration not stated)", "class": "active"}
{"molecule": "O=C1C=C(Br)C(=O)C12CCc1ccccc12 (configuration not stated)", "class": "active"}
{"molecule": "CN(C)c1ccccc1CN1CCCN(Cc2ccccc2N(C)C)C1", "class": "inactive"}
{"molecule": "O=Cc1c(Cn2ccnc2)c2cc([N+](=O)[O-])ccc2n1Cc1ccccc1", "class": "inactive"}
{"molecule": "CCCCN(CCC(=O)O)c1ccc(/C=C\\c2ccnc3ccccc23)cc1", "class": "active"}
{"molecule": "CCNC(=O)NNc1ncnc2c1c(-c1ccc(Cl)cc1)cn2-c1ccc(C)cc1", "class": "active"}
{"molecule": "CC(CC(=O)c1ccc2sc3ccccc3c2c1)C(=O)O (configuration not stated)", "class": "inactive"}
{"molecule": "O=[N+]([O-])c1ccc2nc(-c3ccc(Cl)cc3)[nH]c2c1", "class": "active"}
{"molecule": "CCOc1nc(N)nc(C)c1N=Nc1ccc(Cl)cc1Cl", "class": "inactive"}
{"molecule": "CCOC(=O)C(C)(C)Oc1ccc2c(=O)cc(-c3ccccc3)oc2c1", "class": "active"}
{"molecule": "O=C1NC(=S)S/C1=C\\c1ccc(F)cc1", "class": "inactive"}
{"molecule": "O=C(CC(=O)c1ccccc1)CC(=O)c1cccc(Cl)c1", "class": "inactive"}
{"molecule": "CC(C)(C)c1ccc(Br)c(CCC(=O)NO)c1", "class": "active"}
{"molecule": "CCOC(=O)/N=C(\\N)SCc1ccccc1", "class": "inactive"}
{"molecule": "COc1ccc(NC(=O)Nc2ccc(Cl)cc2)nn1", "class": "inactive"}
{"molecule": "c1ccc(-c2c[nH]c(-c3ccccc3)c2-c2ccccc2)cc1", "class": "active"}
{"molecule": "Cc1nc2c(O)c3c(c(O)c2nc1C)C1C=CC3CC1", "class": "inactive"}
{"molecule": "O=C(C(=O)c1ccc(Cc2ccc(C(=O)C(=O)c3ccccc3)cc2)cc1)c1ccccc1", "class": "inactive"}
{"molecule": "Cc1c(C)c(C)c(C(=O)c2ccccc2C(=O)NCCSC(C)(C)C)c(C)c1C", "class": "active"}
{"molecule": "CCOC(=O)N1CCN(C(=S)N/N=C(\\C)c2ncccn2)CC1", "class": "active"}
{"molecule": "CC(=O)OC1CCCCCCCCCCC12OCCO2 (configuration not stated)", "class": "inactive"}
{"molecule": "O=c1[nH]ncc(SCc2ccccc2)c1SCc1ccccc1", "class": "active"}
{"molecule": "CN(C)CC1CCC/C(=C\\c2ccc(Cl)c(Cl)c2)C1=O (configuration not stated)", "class": "active"}
{"molecule": "Cc1cc2oc3c(ccc(=O)n3C)c(=O)c2c(C)c1Cl", "class": "inactive"}
{"molecule": "CCN(C(=O)C(F)(F)F)c1ccc2c(c1)C(=O)c1ccccc1-2", "class": "inactive"}
{"molecule": "CCCOc1ccc(/C=N/NC(N)=S)cc1", "class": "active"}
{"molecule": "NC(=S)Nc1ccccc1O", "class": "inactive"}
{"molecule": "CCCCCCCCCCCCC1N=C(N)N2CCCC2=C1C(=O)OC (configuration not stated)", "class": "active"}
